Listed next: entries and their corresponding pIC50.
measured-on: VLA-4 (α4β1 integrin) (Homo sapiens, UniProt P05556+P13612)
Construct: Ramos cells bearing cell-surface VLA-4; endogenous in cells; host or cells: Ramos cells
Sequence (P13612 34-1032): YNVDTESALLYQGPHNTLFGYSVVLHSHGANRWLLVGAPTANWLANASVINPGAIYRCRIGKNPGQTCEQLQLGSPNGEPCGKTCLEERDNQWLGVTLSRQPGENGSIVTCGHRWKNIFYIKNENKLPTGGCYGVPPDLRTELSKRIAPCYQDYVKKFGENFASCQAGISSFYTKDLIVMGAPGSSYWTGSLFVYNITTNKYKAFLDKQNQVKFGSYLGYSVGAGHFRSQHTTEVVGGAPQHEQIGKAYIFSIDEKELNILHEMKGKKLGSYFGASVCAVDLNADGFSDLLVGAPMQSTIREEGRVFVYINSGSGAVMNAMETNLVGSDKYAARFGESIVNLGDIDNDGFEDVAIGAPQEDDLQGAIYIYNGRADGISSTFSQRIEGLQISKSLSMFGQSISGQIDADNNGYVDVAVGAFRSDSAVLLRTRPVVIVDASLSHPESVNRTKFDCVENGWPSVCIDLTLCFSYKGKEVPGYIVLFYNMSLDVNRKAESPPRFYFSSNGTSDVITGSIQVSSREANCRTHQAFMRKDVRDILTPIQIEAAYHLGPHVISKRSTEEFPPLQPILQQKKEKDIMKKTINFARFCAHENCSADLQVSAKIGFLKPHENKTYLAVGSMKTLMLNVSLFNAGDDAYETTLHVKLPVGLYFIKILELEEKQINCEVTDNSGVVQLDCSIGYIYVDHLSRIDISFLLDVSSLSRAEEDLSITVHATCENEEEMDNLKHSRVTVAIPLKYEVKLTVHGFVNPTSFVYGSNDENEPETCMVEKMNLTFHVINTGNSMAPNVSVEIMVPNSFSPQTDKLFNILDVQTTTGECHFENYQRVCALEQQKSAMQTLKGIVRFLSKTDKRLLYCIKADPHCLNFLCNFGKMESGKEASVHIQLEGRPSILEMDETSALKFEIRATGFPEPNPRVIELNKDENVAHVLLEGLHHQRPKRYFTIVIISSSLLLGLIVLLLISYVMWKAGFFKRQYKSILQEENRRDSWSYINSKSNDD
Sequence (P05556 21-798): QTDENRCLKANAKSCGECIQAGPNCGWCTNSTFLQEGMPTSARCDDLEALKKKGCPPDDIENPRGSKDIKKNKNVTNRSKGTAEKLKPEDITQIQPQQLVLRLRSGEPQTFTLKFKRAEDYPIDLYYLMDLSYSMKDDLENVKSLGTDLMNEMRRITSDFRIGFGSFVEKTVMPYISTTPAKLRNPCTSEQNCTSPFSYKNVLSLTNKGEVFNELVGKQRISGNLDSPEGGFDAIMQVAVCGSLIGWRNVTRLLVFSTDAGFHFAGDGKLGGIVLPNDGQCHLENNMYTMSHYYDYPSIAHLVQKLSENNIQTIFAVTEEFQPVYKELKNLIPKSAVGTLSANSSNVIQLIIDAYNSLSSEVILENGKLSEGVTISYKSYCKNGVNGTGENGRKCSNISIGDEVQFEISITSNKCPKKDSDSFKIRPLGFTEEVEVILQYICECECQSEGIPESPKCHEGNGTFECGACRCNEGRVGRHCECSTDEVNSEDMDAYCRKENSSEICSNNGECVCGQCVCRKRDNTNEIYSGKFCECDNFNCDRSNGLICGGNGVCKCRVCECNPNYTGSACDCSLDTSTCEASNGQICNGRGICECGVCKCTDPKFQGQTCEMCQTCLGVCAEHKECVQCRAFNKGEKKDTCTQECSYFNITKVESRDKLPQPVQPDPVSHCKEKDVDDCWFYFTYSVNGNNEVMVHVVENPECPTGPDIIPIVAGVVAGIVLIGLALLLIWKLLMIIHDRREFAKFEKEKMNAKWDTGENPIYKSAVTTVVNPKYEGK
method-notes: Ramos (VLA-4)/VCAM-1 Cell-Based Screening Assay (cell adhesion)
applied-conditions: Calcein-AM labeled Ramos cells adhering to immobilized recombinant human VCAM-1
pIC50: −log10 of the molar value.

[[record]]
compound_smiles = "CCN(CC)CCOC(=O)[C@H](Cc1ccc(-c2c(C)n(C)c(=O)n(C)c2=O)cc1)NC(=O)c1c(Cl)cccc1Cl"
value_observed = "> 7.00"


Proceed to the following item.
Recorded result, "CCOC(=O)[C@H](Cc1ccc(-c2c(C)n(C)c(=O)n(C)c2=O)cc1)NC(=O)c1c(C)cccc1Cl" , pIC50: > 5.00
